# Tubulin Assembly ED50 listing for each entry below
Test system: Tubulin free of microtubule-associated proteins
assay: Tubulin Assembly (microtubule assembly; protein concentration of the supernatant)
Type: biochemical, bovine
experimentalContext: concentration which reduces the supernatant protein concentration by 50%; tubulin 1 mg/ml, 37° C., 15 minutes, PEM buffer pH 6.9
readoutLabel: Tubulin Assembly ED50 (µg/mL)

[
  {
    "testSmiles": "CC(=O)O[C@H]1C(=O)[C@]2(C)[C@@H](O[C@@H]3OC[C@@H](O)[C@H](O)[C@H]3O)C[C@H]3OC[C@@]3(OC(C)=O)[C@H]2[C@H](OC(=O)c2ccccc2)[C@]2(O)C[C@H](OC(=O)[C@H](O)[C@@H](NC(=O)c3ccccc3)c3ccccc3)C(C)=C1C2(C)C",
    "measurement": 0.82
  },
  {
    "testSmiles": "CCCCCC(=O)N[C@@H](c1ccccc1)[C@@H](O)C(=O)O[C@H]1C[C@@]2(O)[C@@H](OC(=O)c3ccccc3)[C@@H]3[C@]4(OC(C)=O)CO[C@@H]4C[C@H](O[C@@H]4OC[C@@H](O)[C@H](O)[C@H]4O)[C@@]3(C)C(=O)[C@H](O)C(=C1C)C2(C)C",
    "measurement": 0.58
  },
  {
    "testSmiles": "CC(=O)O[C@@]12CO[C@@H]1C[C@H](O[C@@H]1OC[C@@H](O)[C@H](O)[C@H]1O)[C@@]1(C)C(=O)[C@H](O)C3=C(C)[C@@H](OC(=O)[C@H](O)[C@@H](NC(=O)c4ccccc4)c4ccccc4)C[C@@](O)([C@@H](OC(=O)c4ccccc4)[C@H]21)C3(C)C",
    "measurement": 0.72
  }
]
